# System: CCRIS mutagenicity, Ames/micronucleus/aberration tests
# ASSAY NAME: CCRIS mutagenicity studies
# TEST SETTINGS: End Point: IN VITRO MICRONUCLEUS; Test System: CHL/IU CELLS; Metabolic Activation: RAT, LIVER, S-9, PHENOBARBITAL AND 5,6-BENZOFLAVONE
The source made the active and inactive calls. No rule for the calls is given here.
Use one of these outcomes when replying: active, inactive

**Q:** Assay result, entry `CCOc1ccc(NC(C)=O)cc1` — outcome?
**A:** inactive

---

# System: CCRIS mutagenicity, Ames/micronucleus/aberration tests
# ASSAY NAME: CCRIS mutagenicity studies
# TEST SETTINGS: Test System: AMES SALMONELLA TYPHIMURIUM; Strain/Indicator: TA100; Metabolic Activation: NONE; Method: PREINCUBATION
# Excerpt: The CCRIS database contains chemical records with carcinogenicity, mutagenicity, tumor promotion, and tumor inhibition test results. It was developed by the National Cancer Institute (NCI). Data are derived from studies cited in primary journals, current awareness tools, NCI reports, and other sources. Test results have been reviewed by experts in carcinogenesis and mutagenesis. CCRIS provides historical information from the years 1985 - 2011. It is no longer updated. […]
Active and inactive are the calls of the source. The rule behind the calls is not given here.
Use one of these outcomes when replying: true = active, false = inactive

Use these answered entries as a reference point.
>>> class_label("Cc1ccc2nc3c(ccc4ccccc43)cc2c1")
"true"
>>> class_label("Nc1c([N+](=O)[O-])cccc1[N+](=O)[O-]")
"true"
>>> class_label("CC(C)CNCC(C)C")
"false"

**Q:** Assay result, entry `Clc1nc2ccccc2nc1Cl` — outcome?
**A:** false

**Q:** Assay result, entry `Cc1c(N)cccc1N=Nc1cccc(N)c1C` — outcome?
**A:** false

**Q:** Assay result, entry CC(C#N)CCC#N (stereo unspecified) — outcome?
**A:** false

**Q:** Assay result, entry `CCCCCC` — outcome?
**A:** false
